The reported numbers originate from patent US5043349A.

# Experimental Target: AII receptor
# Run Description: Angiotensin II receptor binding (displacement of 3H-AII from rat adrenal cortical microsomes)
# Run Parameters: 50% displacement of specifically bound 3H-AII (2 nM), 1 hour, room temperature
pIC50: −log10 of the molar value.
Parameter: pIC50

// known answers, use as guide
[
  {
    "Molecular String": "CCCCc1cn(Cc2ccc(-c3ccccc3C(=O)O)cc2)nn1",
    "pIC50": 5.52
  },
  {
    "Molecular String": "CCCc1nnc(COC)n1Cc1ccc(-c2ccccc2C(=O)O)cc1",
    "pIC50": 6.14
  }
]

P. CCCc1cc(COC)nn1Cc1ccc(-c2ccccc2C(=O)O)cc1
Q. CCCCc1nncn1Cc1ccc(-c2ccccc2C(=O)O)cc1
R. CCCc1nnc(COC)n1Cc1ccc(-c2ccccc2-c2nnn[nH]2)cc1
Sort entries by pIC50 from minimum to maximum value. Ranked list of labels, please, in the requested order.
P, Q, R
